Test system: OCUM-1 (Gastric Carcinoma)
Test Name: combination Emax (second highest fraction inhibited in the dose matrix, 72 h); higher = more inhibition; extreme values may be limits of the assay
Criterion: combination Emax meeting or surpassing 0.6. Met: condition met. Not met: condition not met.

Compound: N#Cc1cnc(Nc2cc(NC[C@H]3CNCCO3)c(C(F)(F)F)cn2)cn1 [SRA737] + CCc1c2c(nc3ccc(O)cc13)-c1cc3c(c(=O)n1C2)COC(=O)[C@]3(O)CC [SN-38] (first compound max 10 µM, 7x7, partner max 0.3 µM)
Class: condition met

Compound: C=CCn1c(=O)c2cnc(Nc3ccc(N4CCN(C)CC4)cc3)nc2n1-c1cccc(C(C)(C)O)n1 [AZD1775] + C[C@@H]1COCCN1C2=NC(=NC(=C2)C3(CC3)[S@](=N)(=O)C)C4=C5C=CNC5=NC=C4 [AZD6738] (first compound max 1 µM, partner max 10 µM)
Class: condition met

Compound: CCN(CCO)CCCOc1ccc2c(Nc3cc(CC(=O)Nc4cccc(F)c4)[nH]n3)ncnc2c1 [AZD2811] + C[C@@H]1COCCN1C2=NC(=NC(=C2)C3(CC3)[S@](=N)(=O)C)C4=C5C=CNC5=NC=C4 [AZD6738] (first compound max 1 µM, 7x7, partner max 10 µM)
Class: condition met

Compound: Cn1cnc2c(F)c(Nc3ccc(Br)cc3Cl)c(C(=O)NOCCO)cc21 [Selumetinib] + C=CCn1c(=O)c2cnc(Nc3ccc(N4CCN(C)CC4)cc3)nc2n1-c1cccc(C(C)(C)O)n1 [AZD1775] (first compound max 10 µM, partner max 1 µM)
Class: condition met

Compound: CCN(CCO)CCCOc1ccc2c(Nc3cc(CC(=O)Nc4cccc(F)c4)[nH]n3)ncnc2c1 [AZD2811] + C=CCn1c(=O)c2cnc(Nc3ccc(N4CCN(C)CC4)cc3)nc2n1-c1cccc(C(C)(C)O)n1 [AZD1775] (first compound max 1 µM, partner max 1 µM)
Class: condition not met

Moving on to the next compound.
Problem: Could you verify whether the entry CC(=O)c1c(C)c2cnc(Nc3ccc(N4CCNCC4)cn3)nc2n(C2CCCC2)c1=O [Palbociclib] + CC1(C)CCC(CN2CCN(c3ccc(C(=O)NS(=O)(=O)c4ccc(NCC5CCOCC5)c([N+](=O)[O-])c4)c(Oc4cnc5[nH]ccc5c4)c3)CC2)=C(c2ccc(Cl)cc2)C1 [Venetoclax] (first compound max 10 µM, 7x7, partner max 1 µM) shows combination Emax of no less than 0.6?
Solution: condition not met

---

System: SCC-9 (Oral Cavity Carcinoma)
Test Name: combination Emax (second highest fraction inhibited in the dose matrix, 72 h); higher = more inhibition; extreme values may be limits of the assay
Experimental Readout: combination Emax
// no unit, no text: just the number

Molecule: CC1(C)CCC(CN2CCN(c3ccc(C(=O)NS(=O)(=O)c4ccc(NCC5CCOCC5)c([N+](=O)[O-])c4)c(Oc4cnc5[nH]ccc5c4)c3)CC2)=C(c2ccc(Cl)cc2)C1 [Venetoclax] + CS(=O)(=O)CCNCc1ccc(-c2ccc3ncnc(Nc4ccc(OCc5cccc(F)c5)c(Cl)c4)c3c2)o1 [Lapatinib] (first compound max 1 µM, 7x7, partner max 10 µM)
combination Emax: 0.955
--
Molecule: CC1(C)CCC(CN2CCN(c3ccc(C(=O)NS(=O)(=O)c4ccc(NCC5CCOCC5)c([N+](=O)[O-])c4)c(Oc4cnc5[nH]ccc5c4)c3)CC2)=C(c2ccc(Cl)cc2)C1 [Venetoclax] + C1CN(CCC1(C(=O)N[C@@H](CCO)C2=CC=C(C=C2)Cl)N)C3=NC=NC4=C3C=CN4 [Capivasertib] (first compound max 1 µM, 7x7, partner max 3 µM)
combination Emax: 0.146

Problem: Using known records, supply combination Emax for C[C@@H](c1ccc2nccn2c1)n1nnc2ncc(-c3cnn(C)c3)nc21 [Savolitinib] + CC1(C)CCC(CN2CCN(c3ccc(C(=O)NS(=O)(=O)c4ccc(NCC5CCOCC5)c([N+](=O)[O-])c4)c(Oc4cnc5[nH]ccc5c4)c3)CC2)=C(c2ccc(Cl)cc2)C1 [Venetoclax] (first compound max 1 µM, 7x7, partner max 1 µM)
Solution: 0.116

---

Tested on: NCI-H2347 (Lung Adenocarcinoma)
Test Name: combination Emax (second highest fraction inhibited in the dose matrix, 72 h); higher = more inhibition; extreme values may be limits of the assay
Each entry gets condition not met if its combination Emax stays under 0.4, and condition met if its combination Emax is 0.4 or above.

Compound: Cc1c2c(nn1C)CSCc1cc(n(C)n1)CSc1cc(c3ccccc3c1)OCCCc1c(C(=O)O)n(C)c3c-2c(Cl)ccc13 [AZD5991] + Cc1cc2ncnn2cc1Nc1ncc2c(n1)n(C1CCOCC1)c(=O)n2C [AZD7648] (first compound max 1 µM, 7x7, partner max 10 µM)
Class: condition not met
//
Compound: CN(CCO)CC[C@H](CSc1ccccc1)Nc1ccc(S(=O)(=O)NC(=O)c2ccc(N3CCC([C@@H](O)c4ccccc4-c4ccc(Cl)cc4)CC3)cc2)cc1S(=O)(=O)C(F)(F)F [AZD4320] + C1CN(CCC1(C(=O)N[C@@H](CCO)C2=CC=C(C=C2)Cl)N)C3=NC=NC4=C3C=CN4 [Capivasertib] (first compound max 1 µM, 7x7, partner max 3 µM)
Class: condition not met
//
Compound: COc1cccc(OCCCN)c1-c1cc(Nc2cnc(C#N)cn2)n[nH]1 [Prexasertib] + CN(C)CCCOc1ccc(-c2ccc3ncc4c(c3c2)n(C2CCOCC2)c(=O)n4C)cn1 [AZD0156] (first compound max 1 µM, 7x7, partner max 1 µM)
Class: condition met
//
Compound: CC1(C)CCC(CN2CCN(c3ccc(C(=O)NS(=O)(=O)c4ccc(NCC5CCOCC5)c([N+](=O)[O-])c4)c(Oc4cnc5[nH]ccc5c4)c3)CC2)=C(c2ccc(Cl)cc2)C1 [Venetoclax] + CCN(CCO)CCCOc1ccc2c(Nc3cc(CC(=O)Nc4cccc(F)c4)[nH]n3)ncnc2c1 [AZD2811] (first compound max 1 µM, 7x7, partner max 1 µM)
Class: condition not met
//
Compound: C[C@@H]1COCCN1c1cc(C2([S@](C)(=N)=O)CC2)nc(-c2ccnc3[nH]ccc23)n1 [AZD6738] + O=C(c1cc(Cc2n[nH]c(=O)c3ccccc23)ccc1F)N1CCN(C(=O)C2CC2)CC1 [Olaparib] (first compound max 10 µM, 7x7, partner max 10 µM)
Class: condition not met
//
Compound: Cn1cnc2c(F)c(Nc3ccc(Br)cc3Cl)c(C(=O)NOCCO)cc21 [Selumetinib] + C=CCn1c(=O)c2cnc(Nc3ccc(N4CCN(C)CC4)cc3)nc2n1-c1cccc(C(C)(C)O)n1 [AZD1775] (first compound max 10 µM, partner max 1 µM)
Class: condition met
//
Compound: NC1(C(=O)N[C@@H](CCO)c2ccc(Cl)cc2)CCN(c2ncnc3[nH]ccc23)CC1 [Capivasertib] + CC(C)n1c(=O)n(C)c2cnc3cc(F)c(-c4ccc(OCCCN5CCCCC5)nc4)cc3c21 [AZD1390] (first compound max 10 µM, 7x7, partner max 0.3 µM)
Class: condition not met
//
Compound: COc1cccc(OCCCN)c1-c1cc(Nc2cnc(C#N)cn2)n[nH]1 [Prexasertib] + O=C(c1cc(Cc2n[nH]c(=O)c3ccccc23)ccc1F)N1CCN(C(=O)C2CC2)CC1 [Olaparib] (first compound max 1 µM, 7x7, partner max 10 µM)
Class: condition not met

Attention now turns to another entry.
Problem: Would you say COc1nnc2ccc(N3CCC(c4ccc(OCCN5CCN(C)C(=O)[C@H]5C)cc4)CC3)nn12 [AZD5153] + C=CCn1c(=O)c2cnc(Nc3ccc(N4CCN(C)CC4)cc3)nc2n1-c1cccc(C(C)(C)O)n1 [AZD1775] (first compound max 1 µM, partner max 1 µM) shows combination Emax at minimum 0.4?
Solution: condition met

---

System: NCI-H513 (Other Solid Carcinomas)
Test Name: combination Emax (second highest fraction inhibited in the dose matrix, 72 h); higher = more inhibition; extreme values may be limits of the assay
Documented combination Emax across a set of compounds

For orientation, consider the following solved cases.
Compound: Cn1cnc2c(F)c(Nc3ccc(Br)cc3Cl)c(C(=O)NOCCO)cc21 [Selumetinib] + CCN(CCO)CCCOc1ccc2c(Nc3cc(CC(=O)Nc4cccc(F)c4)[nH]n3)ncnc2c1 [AZD2811] (first compound max 10 µM, 7x7, partner max 1 µM)
combination Emax: 0.264

Compound: COc1cccc(OCCCN)c1-c1cc(Nc2cnc(C#N)cn2)n[nH]1 [Prexasertib] + Cc1cc2ncnn2cc1Nc1ncc2c(n1)n(C1CCOCC1)c(=O)n2C [AZD7648] (first compound max 1 µM, 7x7, partner max 10 µM)
combination Emax: 0.36

Compound: Cc1cc2ncnn2cc1Nc1ncc2c(n1)n(C1CCOCC1)c(=O)n2C [AZD7648] + CN(C)CCCOc1ccc(-c2ccc3ncc4c(c3c2)n(C2CCOCC2)c(=O)n4C)cn1 [AZD0156] (first compound max 10 µM, 7x7, partner max 1 µM)
combination Emax: 0.133

Problem: Specify measured combination Emax for CC1(C)CCC(CN2CCN(c3ccc(C(=O)NS(=O)(=O)c4ccc(NCC5CCOCC5)c([N+](=O)[O-])c4)c(Oc4cnc5[nH]ccc5c4)c3)CC2)=C(c2ccc(Cl)cc2)C1 [Venetoclax] + C1CN(CCC1(C(=O)N[C@@H](CCO)C2=CC=C(C=C2)Cl)N)C3=NC=NC4=C3C=CN4 [Capivasertib] (first compound max 1 µM, 7x7, partner max 3 µM) .
Solution: 0.117

Problem: Provide combination Emax value for the following compound: NC1(C(=O)N[C@@H](CCO)c2ccc(Cl)cc2)CCN(c2ncnc3[nH]ccc23)CC1 [Capivasertib] + CCN(CCO)CCCOc1ccc2c(Nc3cc(CC(=O)Nc4cccc(F)c4)[nH]n3)ncnc2c1 [AZD2811] (first compound max 10 µM, 7x7, partner max 1 µM)
Solution: 0.19

Problem: Complete the entry with combination Emax for CC1(C)CCC(CN2CCN(c3ccc(C(=O)NS(=O)(=O)c4ccc(NCC5CCOCC5)c([N+](=O)[O-])c4)c(Oc4cnc5[nH]ccc5c4)c3)CC2)=C(c2ccc(Cl)cc2)C1 [Venetoclax] + C[C@@H](Nc1cc(F)cc(F)c1)c1cc(C(=O)N(C)C)cc2c(=O)cc(N3CCOCC3)oc12 [AZD8186] (first compound max 1 µM, 7x7, partner max 3 µM)
Solution: 0.17

Problem: Give the measured combination Emax for Cc1c2c(nn1C)CSCc1cc(n(C)n1)CSc1cc(c3ccccc3c1)OCCCc1c(C(=O)O)n(C)c3c-2c(Cl)ccc13 [AZD5991] + C[C@@H](Nc1cc(F)cc(F)c1)c1cc(C(=O)N(C)C)cc2c(=O)cc(N3CCOCC3)oc12 [AZD8186] (first compound max 1 µM, 7x7, partner max 3 µM)
Solution: 0.339

Problem: Note down combination Emax recorded for CN(CCO)CC[C@H](CSc1ccccc1)Nc1ccc(S(=O)(=O)NC(=O)c2ccc(N3CCC([C@@H](O)c4ccccc4-c4ccc(Cl)cc4)CC3)cc2)cc1S(=O)(=O)C(F)(F)F [AZD4320] + CCN(CCO)CCCOc1ccc2c(Nc3cc(CC(=O)Nc4cccc(F)c4)[nH]n3)ncnc2c1 [AZD2811] (first compound max 1 µM, 7x7, partner max 1 µM)
Solution: 0.13
